Tested on: Plasmodium falciparum
protocolDescription: Antiplasmodial activity against Plasmodium falciparum Dd2 after 72 hrs by SYBR Green I dye-based assay
Format: functional, organism-based
condition: Dd2, 72 h
measuredAttribute: pIC50
Please treat pIC50 as minus the base-10 logarithm of the molar concentration.

Reference set, count: 4
- smilesInput: "C=C(C)C(=O)O[C@H]1C/C(C)=C\\C(=O)C[C@@]2(C)O[C@H]2[C@H]2OC(=O)C(COC(C)=O)=C12"
  pIC50: 4.92
- smilesInput: "C=C(C)C(=O)O[C@H]1C/C(C)=C\\C(=O)/C=C(C)/C=C2/OC(=O)C(COC(C)=O)=C21"
  pIC50: 5.83
- smilesInput: "C=C(C)C(=O)O[C@H]1C/C(C)=C\\C(=O)/C=C(\\C)[C@@H](O)[C@@H]2OC(=O)C(COC(C)=O)=C12"
  pIC50: 4.43
- smilesInput: "C[C@@H]1CC[C@H]2[C@@H](C)C(=O)O[C@@H]3O[C@@]4(C)CC[C@@H]1[C@]32OO4"
  pIC50: 8.15

Continue with the next molecule.
Q: Using the record for C=C(C)C(=O)O[C@@H]1C/C(C)=C\[C@@]2(O)C=C(C)[C@H](O2)[C@H]2OC(=O)C(COC(C)=O)=C12 , state its measured pIC50.
Ans: 4.35
